test: physchem; settings: 1:1 CH3CN/H2O
I'd appreciate it if you could supply remaining at 24 h values for the items below.
Numbers only, in %.

Examples with answers:
>>> endpoint_result("CC(C)(C)C[C@@H]1N[C@@H](C(=O)NCCN2CCOCC2)[C@H](c2cccc(Cl)c2F)[C@]12C(=O)Nc1cc(Cl)ccc12")
90.8
>>> endpoint_result("O=C(NCCN1CCOCC1)[C@@H]1NC2(CCCCC2)[C@@]2(C(=O)Nc3cc(Cl)ccc32)[C@H]1c1cccc(Cl)c1F")
100
>>> endpoint_result("CC(C)(C)C[C@@H]1N[C@@H](C(=O)NCC[C@H](O)CO)[C@H](c2cccc(Cl)c2F)[C@]12C(=O)Nc1cc(Cl)ccc12")
95.8
>>> endpoint_result("CC(C)(C)C[C@@H]1N[C@@H](C(=O)N[C@H]2C[C@@](C)(O)C2)[C@H](c2cccc(Cl)c2F)[C@]12C(=O)Nc1cc(Cl)ccc12")
99.6
>>> endpoint_result("O=C(NCC[C@H](O)CO)[C@@H]1NC2(CCCCC2)[C@@]2(C(=O)Nc3cc(Cl)ccc32)[C@H]1c1cccc(Cl)c1F")
100

(Q) Report remaining at 24 h, nothing else, for this compound: `C[C@]1(O)C[C@@H](NC(=O)[C@@H]2NC3(CCCCC3)[C@@]3(C(=O)Nc4cc(Cl)ccc43)[C@H]2c2cccc(Cl)c2F)C1`
(A) 100
